- System: Neonatal foreskin fibroblast (NFF) cells
- PROTOCOL: Mammalian cell cytotoxicity assay (sulforhodamine B)
- Type: cell-based, human
- APPLIED CONDITIONS: Table S2; NFF vs 48 h Giardia IC50
MEASURED ATTRIBUTE: SI (48h Gd)

[[record]]
molecule = "COc1ccc(Nc2cc(C)nc(N3CCN(C(=O)Nc4cccc(OC)c4)CC3)n2)cc1"
observed_result = "> 2"

[[record]]
molecule = "Cc1ncc([N+](=O)[O-])n1Cc1csc(Cc2ccccc2)n1"
observed_result = "> 3"

[[record]]
molecule = "O=C(NC1CCCCC1)c1nc(Nc2ccccc2)c2ccccc2n1"
observed_result = "> 2"

[[record]]
molecule = "Cn1nccc1-c1cccc(-c2noc(-c3cccc(F)c3)n2)c1"
observed_result = "> 4"

[[record]]
molecule = "CN(C)CCn1cc(C(=O)c2cc(Cl)ccc2O)cc1-c1nc2ccccc2c(=O)[nH]1"
observed_result = "> 5"

[[record]]
molecule = "Cc1ccc(C(=O)Nc2ccc3c(c2)N(C)C(=O)c2ccccc2O3)cc1"
observed_result = "> 55"

[[record]]
molecule = "COc1ccc(C)cc1N1C(=O)C(c2ccccc2)C(c2nc3ccccc3s2)=C1N (centres unmarked)"
observed_result = "< 20"

[[record]]
molecule = "CC1CCN(C(=O)c2oc3ccccc3c2NC(=O)c2ccc([N+](=O)[O-])o2)CC1"
observed_result = "> 166"

